- TARGET_DESC: hSCN3A sodium channels (Homo sapiens)
- Construct: expressed in transfected cells
- PROTOCOL_NOTES: hSCN3A electrophysiology, whole-cell patch-clamp or PatchXpress 7000, estimated IC-50 (Table B)
- Assay type: cell-based
- TEST_CONDITIONS: estimated IC-50; hSCN3A cells, whole-cell patch-clamp or PatchXpress 7000; read-out: SCN3A EIC-50
PARAMETER_MEASURED: IC50 (nM)
Answer in nM, number only, no unit symbol.

// worked examples, IC50 included
* COc1ccc(NC(=O)c2ccc(S(=O)(=O)Nc3nccs3)cc2)cn1 | 5670
* O=C(Nc1cnn(Cc2ccc(Cl)cc2)c1)c1ccc(S(=O)(=O)Nc2ncc(Cl)s2)c(F)c1 | 120
* O=C(NCc1ccc(Cl)cc1F)c1ccc(S(=O)(=O)Nc2nccs2)cc1 | 460
* O=C(Nc1nccc2ccccc12)c1ccc(S(=O)(=O)Nc2nccs2)cc1 | 12700
* O=C(NCc1ccc(F)c(F)c1)c1ccc(S(=O)(=O)Nc2nccs2)cc1F | 360

Consider the additional compound presented here.
### Prompt Quick check: IC50 on hSCN3A sodium channels (Homo sapiens), item `O=C(NCc1ccc(OC(F)(F)F)cc1)c1ccc(S(=O)(=O)Nc2nccs2)cc1` ?
### Response 190

----------
- TARGET_DESC: hSCN3A sodium channels (Homo sapiens)
- Construct: expressed in transfected cells
- PROTOCOL_NOTES: hSCN3A electrophysiology, whole-cell patch-clamp or PatchXpress 7000, estimated IC-50 (Table B)
- Format: cell-based
- TEST_CONDITIONS: read-out: SCN3A EIC-50
PARAMETER_MEASURED: IC50 (nM)
Answer in nM, number only, no unit symbol.

• O=C(NCc1ccc(C(F)(F)F)c(F)c1)c1ccc(S(=O)(=O)Nc2ncc(Cl)s2)cn1 [Example 345] = 270
• O=C(NCc1ccc(C(F)(F)F)c(Cl)c1)c1ccc(S(=O)(=O)Nc2ncc(Cl)s2)cn1 [Example 346] = 70

Consider the additional molecule presented here.
### Prompt Returns the measured IC50 for the input molecule. Input: O=C(NCc1ccc(C(F)(F)F)c(Cl)c1)c1ccc(S(=O)(=O)Nc2nccs2)cn1 [Example 341]
### Response 190

----------
- TARGET_DESC: hSCN3A sodium channels (Homo sapiens, UniProt Q9NY46)
- Construct: expressed in transfected cells
- Sequence (Q9NY46 whole entry): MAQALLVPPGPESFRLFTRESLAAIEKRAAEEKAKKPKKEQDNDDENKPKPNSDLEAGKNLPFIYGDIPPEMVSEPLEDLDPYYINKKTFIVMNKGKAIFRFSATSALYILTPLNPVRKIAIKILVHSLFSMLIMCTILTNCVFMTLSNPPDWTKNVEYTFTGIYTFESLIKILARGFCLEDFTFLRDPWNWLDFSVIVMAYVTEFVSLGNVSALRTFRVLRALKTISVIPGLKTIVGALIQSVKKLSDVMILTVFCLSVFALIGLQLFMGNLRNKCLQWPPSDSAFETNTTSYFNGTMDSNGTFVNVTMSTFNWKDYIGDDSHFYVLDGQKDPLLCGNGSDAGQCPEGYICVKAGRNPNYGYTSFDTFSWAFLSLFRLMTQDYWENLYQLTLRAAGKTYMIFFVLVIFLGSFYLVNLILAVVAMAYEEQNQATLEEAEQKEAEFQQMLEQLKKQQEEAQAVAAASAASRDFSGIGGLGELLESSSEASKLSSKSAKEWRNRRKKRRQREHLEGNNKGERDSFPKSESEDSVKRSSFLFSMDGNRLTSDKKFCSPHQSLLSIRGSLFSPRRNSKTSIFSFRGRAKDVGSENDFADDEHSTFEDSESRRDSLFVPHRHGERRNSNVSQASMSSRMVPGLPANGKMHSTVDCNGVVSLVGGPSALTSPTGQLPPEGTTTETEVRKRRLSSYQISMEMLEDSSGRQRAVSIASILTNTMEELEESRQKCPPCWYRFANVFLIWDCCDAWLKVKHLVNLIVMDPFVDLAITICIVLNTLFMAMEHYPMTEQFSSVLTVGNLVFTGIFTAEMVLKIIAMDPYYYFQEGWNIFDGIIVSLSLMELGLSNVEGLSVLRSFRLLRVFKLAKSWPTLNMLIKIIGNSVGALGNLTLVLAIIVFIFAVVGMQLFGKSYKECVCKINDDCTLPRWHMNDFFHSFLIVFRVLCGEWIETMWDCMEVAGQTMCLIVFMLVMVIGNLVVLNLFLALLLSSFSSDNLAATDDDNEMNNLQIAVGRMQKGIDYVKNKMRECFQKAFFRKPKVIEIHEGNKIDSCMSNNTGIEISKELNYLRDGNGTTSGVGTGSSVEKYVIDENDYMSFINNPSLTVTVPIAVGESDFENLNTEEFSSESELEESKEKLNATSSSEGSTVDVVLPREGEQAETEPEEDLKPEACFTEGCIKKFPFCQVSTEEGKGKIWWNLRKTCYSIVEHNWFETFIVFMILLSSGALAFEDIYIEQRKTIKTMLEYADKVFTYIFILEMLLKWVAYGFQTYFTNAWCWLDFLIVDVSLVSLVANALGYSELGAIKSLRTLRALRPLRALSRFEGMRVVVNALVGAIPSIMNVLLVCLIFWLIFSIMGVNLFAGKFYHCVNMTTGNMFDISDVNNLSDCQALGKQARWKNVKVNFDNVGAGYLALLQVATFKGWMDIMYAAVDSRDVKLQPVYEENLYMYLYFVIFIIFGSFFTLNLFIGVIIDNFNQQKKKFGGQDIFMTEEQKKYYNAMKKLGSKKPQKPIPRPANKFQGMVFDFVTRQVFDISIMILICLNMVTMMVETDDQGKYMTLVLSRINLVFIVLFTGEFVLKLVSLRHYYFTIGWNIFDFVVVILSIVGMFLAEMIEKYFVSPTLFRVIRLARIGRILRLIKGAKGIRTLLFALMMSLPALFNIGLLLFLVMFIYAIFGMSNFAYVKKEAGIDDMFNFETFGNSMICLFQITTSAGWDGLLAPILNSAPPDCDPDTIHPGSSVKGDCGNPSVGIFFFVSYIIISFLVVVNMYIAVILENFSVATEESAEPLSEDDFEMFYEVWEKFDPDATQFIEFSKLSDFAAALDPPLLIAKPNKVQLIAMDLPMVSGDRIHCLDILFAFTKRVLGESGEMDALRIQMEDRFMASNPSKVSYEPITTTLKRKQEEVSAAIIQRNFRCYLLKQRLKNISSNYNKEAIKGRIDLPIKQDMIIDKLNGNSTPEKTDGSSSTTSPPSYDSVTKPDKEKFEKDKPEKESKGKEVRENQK
- PROTOCOL_NOTES: hSCN3A electrophysiology, whole-cell patch-clamp or PatchXpress 7000, estimated IC-50 (Table B)
- Assay type: cell-based
- TEST_CONDITIONS: estimated IC-50; hSCN3A cells, whole-cell patch-clamp or PatchXpress 7000; read-out: SCN3A EIC-50
PARAMETER_MEASURED: pIC50
Please treat pIC50 as minus the base-10 logarithm of the molar concentration.

### Prompt Returns the measured pIC50 for the input compound. Input: O=C(NCc1cc(Cl)ccc1Cl)c1ccc(S(=O)(=O)Nc2nccs2)cc1 [Example 126]
### Response 6.54

### Prompt And O=C(NC1CCc2ccccc21)c1ccc(S(=O)(=O)Nc2nccs2)cc1 (centres unmarked) [Example 158] ?
### Response 5.62

### Prompt And N#CCCN(Cc1ccccc1)C(=O)c1ccc(S(=O)(=O)Nc2nccs2)cc1 [Example 218] ?
### Response 4.67

### Prompt And O=C(Nc1ccn(Cc2ccc(Cl)cc2)n1)c1ccc(S(=O)(=O)Nc2ncc(Cl)s2)c(F)c1 [Example 380] ?
### Response 6.77

### Prompt And O=C(NCc1ccc(C(F)(F)F)cc1)c1ccc(S(=O)(=O)Nc2ncns2)cc1Cl [Example 377] ?
### Response 6.07

### Prompt And Cn1nc(Cc2ccc(Cl)cc2)cc1NC(=O)c1ccc(S(=O)(=O)Nc2ncc(Cl)s2)c(F)c1 [Example 379] ?
### Response 7.70

### Prompt And O=C(NCc1ccc(Cl)c(F)c1)c1ccc(S(=O)(=O)Nc2nccs2)c(F)c1 [Example 295] ?
### Response 6.66

----------
- TARGET_DESC: hSCN3A sodium channels (Homo sapiens, UniProt Q9NY46)
- Construct: expressed in transfected cells
- PROTOCOL_NOTES: hSCN3A electrophysiology, Ionworks Quattro automated platform (Table C)
- Assay type: cell-based
- TEST_CONDITIONS: 3 μM compound, read-out: SCN3A % INHIB HTS IWQ 3 μM
// inhibition at 3 µM lookup, one value per entry
Answer in %, number only, no unit symbol.

// worked examples, inhibition at 3 µM included
• CC(Cc1ccc(F)c(F)c1)NC(=O)c1ccc(S(=O)(=O)Nc2nccs2)cc1 (stereo not drawn) = 17.4
• O=C(c1ccc(S(=O)(=O)Nc2nccs2)cc1)N1CCOC(C2CC2)C1 (stereo not drawn) = 3.22
• O=C(NCCc1ccc(F)cc1)c1ccc(S(=O)(=O)Nc2nccs2)cc1 = 22.4
• CC(C)(NC(=O)c1ccc(S(=O)(=O)Nc2nccs2)cc1)c1cc(F)cc(F)c1 = 6.82
• CC(C)(NC(=O)c1ccc(S(=O)(=O)Nc2nccs2)cc1)c1ccc(F)c(F)c1 = 24.3

Consider the additional compound presented here.
### Prompt Quick check: inhibition at 3 µM on hSCN3A sodium channels (Homo sapiens, UniProt Q9NY46), item CN(CC(O)c1ccccc1)C(=O)c1ccc(S(=O)(=O)Nc2nccs2)cc1 (stereo not drawn) ?
### Response -4.32

----------
// pIC50 lookup, one value per entry
- TARGET_DESC: hSCN3A sodium channels (Homo sapiens)
- Construct: expressed in transfected cells
- PROTOCOL_NOTES: hSCN3A electrophysiology, whole-cell patch-clamp or PatchXpress 7000, estimated IC-50 (Table B)
- Assay type: cell-based
- TEST_CONDITIONS: estimated IC-50; hSCN3A cells, whole-cell patch-clamp or PatchXpress 7000; read-out: SCN3A EIC-50
Please treat pIC50 as minus the base-10 logarithm of the molar concentration.

// worked examples, pIC50 included
• O=C(NCc1ccc(Cl)c(F)c1)c1ccc(S(=O)(=O)Nc2ncc(Cl)s2)cc1 [Example 37] = 7.15
• O=C(NCc1ccc(C(F)(F)F)c(F)c1)c1ccc(S(=O)(=O)Nc2nccs2)c(F)c1 [Example 304] = 7.15
• O=C(NCc1cccc(OC(F)(F)F)c1)c1ccc(S(=O)(=O)Nc2nccs2)cc1F [Example 335] = 6.70
• O=C(NCc1ccc(C(F)(F)F)c(F)c1)c1ccc(S(=O)(=O)Nc2ncc(Cl)s2)c(Cl)c1 [Example 366] = 6.14
• O=C(NCc1cccc(C(F)(F)F)c1)c1ccc(S(=O)(=O)Nc2nccs2)c(F)c1 [Example 302] = 6.46

### Prompt Returns the measured pIC50 for the input compound. Input: O=C(NCc1cccc(OC(F)(F)F)c1)c1ccc(S(=O)(=O)Nc2ncc(Cl)s2)cc1F [Example 357]
### Response 6.72

### Prompt And O=C(c1ccc(S(=O)(=O)Nc2nccs2)cc1)N1CCC[C@H]1COc1cccc(Cl)c1 [Example 384] ?
### Response 6.46

### Prompt And O=C(NCc1ccc(F)c(Cl)c1)c1ccc(S(=O)(=O)Nc2nccs2)cc1F [Example 332] ?
### Response 6.42

----------
- TARGET_DESC: hSCN3A sodium channels (Homo sapiens, UniProt Q9NY46)
- Construct: expressed in transfected cells
- PROTOCOL_NOTES: hSCN3A electrophysiology, whole-cell patch-clamp or PatchXpress 7000, estimated IC-50 (Table B)
- Format: cell-based
PARAMETER_MEASURED: IC50

### Prompt Returns the measured IC50 for the input molecule. Input: `O=C(NCc1ccc(C(F)(F)F)cc1)c1cccc(S(=O)(=O)Nc2nncs2)c1`
### Response > 10 µM

----------
// pIC50 lookup, one value per entry
- TARGET_DESC: hSCN3A sodium channels (Homo sapiens)
- Construct: expressed in transfected cells
- PROTOCOL_NOTES: hSCN3A electrophysiology, whole-cell patch-clamp or PatchXpress 7000, estimated IC-50 (Table B)
- Format: cell-based
- TEST_CONDITIONS: estimated IC-50; hSCN3A cells, whole-cell patch-clamp or PatchXpress 7000; read-out: SCN3A EIC-50
Please treat pIC50 as minus the base-10 logarithm of the molar concentration.

// worked examples, pIC50 included
• O=C(NCc1ccc(F)c(OC(F)(F)F)c1)c1ccc(S(=O)(=O)Nc2ncc(Cl)s2)c(F)c1 = 6.80
• O=C(NCc1ccc(C(F)(F)F)cc1)c1cccc(S(=O)(=O)Nc2nccs2)c1 = 5.01
• O=C(NCc1ccc(F)c(Cl)c1)c1ccc(S(=O)(=O)Nc2ncc(Cl)s2)cc1 = 7.15

Consider the additional compound presented here.
### Prompt Quick check: pIC50 on hSCN3A sodium channels (Homo sapiens), item `O=C(NCc1cccc(Cl)c1Cl)c1ccc(S(=O)(=O)Nc2nccs2)cc1` ?
### Response 6.19

----------
- TARGET_DESC: hSCN3A sodium channels (Homo sapiens, UniProt Q9NY46)
- Construct: expressed in transfected cells
- PROTOCOL_NOTES: hSCN3A electrophysiology, Ionworks Quattro automated platform (Table C)
- Format: cell-based
- TEST_CONDITIONS: 3 μM compound, read-out: SCN3A % INHIB HTS IWQ 3 μM
Outcome: 1 (yes) for inhibition at 3 µM of at least 20%; 0 (no) for anything lower.

Would you please look over these solved cases?
- O=C(c1ccc(S(=O)(=O)Nc2nccs2)cc1)N1CCCCC1Cc1ccccn1 (stereo not shown): 0 (no)
- Cc1cccc(CNC(=O)c2ccc(S(=O)(=O)Nc3nccs3)cc2)c1: 1 (yes)
- Cc1ccc(OCCNC(=O)c2ccc(S(=O)(=O)Nc3nccs3)cc2)cc1: 1 (yes)
- O=C(N[C@H](CO)Cc1ccccc1)c1ccc(S(=O)(=O)Nc2nccs2)cc1: 0 (no)
- CC(NC(=O)c1ccc(S(=O)(=O)Nc2nccs2)cc1)c1ccc(F)cc1 (stereo not shown): 1 (yes)
- O=C(NCc1ccccc1OC(F)F)c1ccc(S(=O)(=O)Nc2nccs2)cc1: 0 (no)

### Prompt Check the entry O=C(c1ccc(S(=O)(=O)Nc2nccs2)cc1)N1CCCCC1CCn1cccn1 (stereo not shown) : does inhibition at 3 µM equal or exceed 20%?
### Response 0 (no)

### Prompt And CC(NC(=O)c1ccc(S(=O)(=O)Nc2nccs2)cc1)c1ccccc1Cl (stereo not shown) ?
### Response 0 (no)

### Prompt And `O=C(c1ccc(S(=O)(=O)Nc2nccs2)cc1)N1CCCO[C@H]1Cc1ccccc1` ?
### Response 0 (no)

### Prompt And Cc1cccc(C2CCCN2C(=O)c2ccc(S(=O)(=O)Nc3nccs3)cc2)c1 (stereo not shown) ?
### Response 0 (no)

### Prompt And COc1cccc(C2CCCCN2C(=O)c2ccc(S(=O)(=O)Nc3nccs3)cc2)c1 (stereo not shown) ?
### Response 0 (no)
